experimental.details: qHTS Assay for Lipid Storage Modulators (AID 1519)
settings: Drosophila S3 cells, BODIPY lipid droplet/cell ratio, laser cytometry; measured here: lipid channel max response; cells loaded with oleic acid
Results filed as inconclusive are left out.
The following molecules are shown together with reported max response values.
Write it as a number; the unit % goes unstated.

>>> measurement("COc1cc(N)c(Cl)cc1C(=O)OCCCN1CCCCC1")
21.4
>>> measurement("C[C@H](N)C(=O)O")
-5.58
>>> measurement("NC1(C(=O)O)CC(C(=O)O)C1 (stereo not drawn)")
10.2
>>> measurement("Nc1ncnc2c1ncn2[C@@H]1O[C@H](COP(=O)(O)OP(=O)(O)O)[C@@H](O)[C@H]1O")
2.42
>>> measurement("O=C1C=CC(=O)c2c(O)c(Cl)c(Cl)c(O)c21")
7.95
>>> measurement("COc1ccccc1N1CCN(CCCCN2C(=O)CCC2=O)CC1")
-4.4
>>> measurement("O=C(OC1Cc2c(O)cc(O)cc2OC1c1cc(O)c(=O)c2c(O)c(O)cc(C3Oc4cc(O)cc(O)c4CC3OC(=O)c3cc(O)c(O)c(O)c3)c2c1)c1cc(O)c(O)c(O)c1 (stereo not drawn)")
7.68

Kindly consider the entry below.
Q: Any idea what its max response is? The molecule is `CCCn1c(=O)c2[nH]c(-c3ccc(OCC(=O)Nc4ccc(C#N)cc4)cc3)nc2n(CCC)c1=O`
Ans: -10.7

----------
experimental.details: Primary qHTS for inhibitors of nuclear receptor binding SET domain protein 2 (NSD2) in an RCH-ACV wild type WT cells (2C) (AID 1645877); also: nearly all actives have a fitted effect of over 70% in size; also: potency is read from the fitted curve at half-maximal effect
settings: RCH-ACV (leukaemia line) NSD2 WT (2C) viability, CellTiter-Glo, 72 h; series mostly up to 44.9 µM
Records with an inconclusive call do not appear. Activity calls are given as the source filed them. The call rests on the fitted dose curve; in most records, active means well fitted inhibition curve with a large enough effect; inconclusive means small, poorly fitted or top-dose-only effect; inactive means no such curve, though single readings can be large or run the other way.
value.kind: Potency

>>> measurement("CC(C)C(N)C(=O)OCC(CO)OCn1cnc2c(=O)[nH]c(N)nc21 (configuration not stated)")
"inactive"
>>> measurement("CN(C)C(=O)c1cc2cnc(Nc3ccc(N4CCNCC4)cn3)nc2n1C1CCCC1")
"5.15 µM (active)"
>>> measurement("Clc1ccc2ncc(-c3cccc(NC4CCNCC4)n3)n2c1")
"0.259 µM (active)"
>>> measurement("O=C(/C=C/n1cnc(-c2cc(C(F)(F)F)cc(C(F)(F)F)c2)n1)NNc1cnccn1")
"2.05 µM (active)"
>>> measurement("Cc1c[nH]c(/C=C2\\C(=O)Nc3ccccc32)c1CCC(=O)O")
"18.6 µM (active)"
>>> measurement("C[N+]1(C)[C@@H]2CC[C@H]1CC(OC(=O)C(O)c1ccccc1)C2 (some centres not stated)")
"inactive"

Kindly consider the entry below.
Q: Any idea what its Potency is? The molecule is `O=C1Cc2c([nH]c3ccc([N+](=O)[O-])cc23)-c2ccccc2N1`
Ans: 0.632 µM (active)

Origin of the recorded values: PubChem BioAssay (NCATS)
